# Protocol notes: Cytotoxicity measured as Inhibition of KB cell growth was assessed.
# Format: functional, cell-based
# Test settings: Homo sapiens
pIC50: −log10 of the molar value.
Parameter: pIC50. Scope: all listed entries.
Metric: pIC50

>>> reported("CCCCCC(=O)NC1=NN(C)c2ncnc3c2c1cn3C1O[C@H](CO)[C@@H](O)[C@H]1O (stereo partly drawn)")
4.40
>>> reported("CCCCCCCCCC(=O)NC1=NN(C)c2ncnc3c2c1cn3C1O[C@H](CO)[C@@H](O)[C@H]1O (stereo partly drawn)")
4.40
>>> reported("CCCCCCC(=O)NC1=NN(C)c2ncnc3c2c1cn3C1O[C@H](CO)[C@@H](O)[C@H]1O (stereo partly drawn)")
4.52
>>> reported("CCCCCCCCC(=O)NC1=NN(C)c2ncnc3c2c1cn3C1O[C@H](CO)[C@@H](O)[C@H]1O (stereo partly drawn)")
4.19
>>> reported("CCCC(=O)NC1=NN(C)c2ncnc3c2c1cn3C1O[C@H](CO)[C@@H](O)[C@H]1O (stereo partly drawn)")
4.00
>>> reported("CCCCCCCC(=O)NC1=NN(C)c2ncnc3c2c1cn3C1O[C@H](CO)[C@@H](O)[C@H]1O (stereo partly drawn)")
4.40
>>> reported("CCCCCCCCCCCC(=O)NC1=NN(C)c2ncnc3c2c1cn3C1O[C@H](CO)[C@@H](O)[C@H]1O (stereo partly drawn)")
4.12
>>> reported("CCCCC(=O)NC1=NN(C)c2ncnc3c2c1cn3C1O[C@H](CO)[C@@H](O)[C@H]1O (stereo partly drawn)")
4.52
>>> reported("CN1N=C(N)c2cn([C@@H]3O[C@H](COP(=O)(O)O)[C@@H](O)[C@H]3O)c3ncnc1c23 [TRICIRIBINE PHOSPHATE]")
5.00

* * *

# Protocol notes: Antiviral activity was evaluated by RT (reverse transcriptase) activity in cells acutely infected with HIV-1
pIC50: −log10 of the molar value.
Metric: pIC50

>>> reported("CN1N=C(N)c2cn([C@@H]3O[C@H](COP(=O)(O)O)[C@@H](O)[C@H]3O)c3ncnc1c23 [TRICIRIBINE PHOSPHATE]")
7.40

* * *

Parameter: IC50. Scope: all listed entries.
# System: HFF
# Protocol notes: Antiviral activity against HCMV was determined by plaque reduction assay using HFF cells
# Assay type: functional, cell-based
# Test settings: Homo sapiens
Metric: IC50

>>> reported("CC(C)C(=O)NC1=NN(C)c2ncnc3c2c1cn3C1O[C@H](CO)[C@@H](O)[C@H]1O (some centres undefined)")
"> 100 µM"
>>> reported("CCCCCCCCCC(=O)NC1=NN(C)c2ncnc3c2c1cn3C1O[C@H](CO)[C@@H](O)[C@H]1O (some centres undefined)")
"12 µM"
>>> reported("CCCCCCC(=O)NC1=NN(C)c2ncnc3c2c1cn3C1O[C@H](CO)[C@@H](O)[C@H]1O (some centres undefined)")
"11 µM"
>>> reported("CCC(=O)NC1=NN(C)c2ncnc3c2c1cn3C1O[C@H](CO)[C@@H](O)[C@H]1O (some centres undefined)")
"40 µM"
>>> reported("CCCC(=O)NC1=NN(C)c2ncnc3c2c1cn3C1O[C@H](CO)[C@@H](O)[C@H]1O (some centres undefined)")
"10 µM"
>>> reported("CCCCCC(=O)NC1=NN(C)c2ncnc3c2c1cn3C1O[C@H](CO)[C@@H](O)[C@H]1O (some centres undefined)")
"8.8 µM"
>>> reported("CCCCCCCCC(=O)NC1=NN(C)c2ncnc3c2c1cn3C1O[C@H](CO)[C@@H](O)[C@H]1O (some centres undefined)")
"12 µM"
>>> reported("CCCCCCCCCCCC(=O)NC1=NN(C)c2ncnc3c2c1cn3C1O[C@H](CO)[C@@H](O)[C@H]1O (some centres undefined)")
"12 µM"
>>> reported("CCCCCCCC(=O)NC1=NN(C)c2ncnc3c2c1cn3C1O[C@H](CO)[C@@H](O)[C@H]1O (some centres undefined)")
"12 µM"

Each recorded value in this set is attributed to ChEMBL document CHEMBL1133753.
